Cited source for all entries: patent US20150337013A1

# Test system: Enterococcus faecalis EFS.201 (ATCC 49452)
# Assay type: cell-based
# Condition summary: ATCC 49452
Provide the reported Efs201 MIC of each item.
Respond numerically; units are µg/mL and should not be typed.

Recorded Efs201 MIC (compound CCCCOc1ccc(-c2ccc(C(=O)N[C@@H](Cc3c[nH]c4ccccc34)C(=O)N[C@H](CC(N)=O)C(=O)N[C@@H](CC(=O)O)C(=O)N[C@@H]3C(=O)NCC(=O)N[C@@H](CCCN)C(=O)N[C@@H](CC(=O)O)C(=O)N[C@H](C)C(=O)N[C@@H](CC(=O)O)C(=O)NCC(=O)N[C@H](CO)C(=O)N[C@@H]([C@H](C)CC(=O)O)C(=O)N[C@@H](CC(=O)c4ccccc4N)C(=O)O[C@@H]3C)cc2)cc1 [Compound 60] ): 4

For CCCCCCCCCC(=O)N[C@@H](Cc1c[nH]c2ccccc12)C(=O)N[C@H](CC(N)=O)C(=O)N[C@@H](CC(=O)O)C(=O)N[C@@H]1C(=O)NCC(=O)N[C@@H](CCCN)C(=O)N[C@@H](CC(=O)O)C(=O)N[C@H](C)C(=O)N[C@@H](CC(=O)O)C(=O)NCC(=O)N[C@H](CO)C(=O)N[C@@H]([C@H](C)CC(=O)O)C(=O)N[C@@H](CC(=O)c2ccccc2N)C(=O)O[C@@H]1C [Daptomycin, reference compound] the compound record lists Efs201 MIC as 2

Documented Efs201 MIC of CCCOc1ccc(-c2ccc(C(=O)N[C@@H](Cc3c[nH]c4ccccc34)C(=O)N[C@H](CC(N)=O)C(=O)N[C@@H](CC(=O)O)C(=O)N[C@@H]3C(=O)NCC(=O)N[C@@H](CCCN)C(=O)N[C@@H](CC(=O)O)C(=O)N[C@H](C)C(=O)N[C@@H](CC(=O)O)C(=O)NCC(=O)N[C@H](CO)C(=O)N[C@@H]([C@H](C)CC(=O)O)C(=O)N[C@@H](CC(=O)c4ccccc4N)C(=O)O[C@@H]3C)cc2)cc1 [Compound 59] : 4
